The measurements presented in this section are drawn from paper PMC6968775.

- measurement protocol: Pharmacokinetics after iv and oral administration, P‐S difference method, Mdr1a/1b(−/−) mice
- Format: in vivo
- measurement context: male, Mdr1a/1b(−/−) (FVB background), mouse, plasma, iv, 1 mg/kg, Mdr1a/1b(−/−) mice; iv 1 mg/kg; read-out: AUC 0→∞
measured property: AUC(0-inf) (µM·h)
Lab book: enter the figure in µM·h, no units written.

Problem: Fill in AUC(0-inf) for record O=C1CN(/N=C/c2ccc([N+](=O)[O-])o2)C(=O)N1
Solution: 1.95

---

- measurement protocol: Pharmacokinetics after iv and oral administration, P‐S difference method, wild‐type mice
- Type: in vivo
- measurement context: male, FVB (wild-type), mouse, plasma, iv, 1 mg/kg, wild‐type mice; iv 1 mg/kg
Counter-ions that a name gives are not always drawn.
half-life reference
Express it in h; write the number only.

# compound, quantity unit, half-life
measured = [
    ("CC[C@@]1(O)C(=O)OCc2c1cc1n(c2=O)Cc2cc3c(CN(C)C)c(O)ccc3nc2-1 [topotecan, Topotecan HCl]", "h", 1.26),
    ("O=C(O)c1cc(/N=N/c2ccc(S(=O)(=O)Nc3ccccn3)cc2)ccc1O", "h", 1.95),
]

Problem: For O=C1CN(/N=C/c2ccc([N+](=O)[O-])o2)C(=O)N1 , write its half-life.
Solution: 2.87

---

- measurement protocol: Pharmacokinetics after iv and oral administration, P‐S difference method, Mdr1a/1b(−/−) mice
- Format: in vivo
- measurement context: male, FVB Mdr1a/1b(−/−), mouse, plasma (systemic, abdominal vein); Mdr1a/1b(−/−) mice; iv 1 mg/kg; read-out: Vdss
Where a name gives a salt, the structure may show the parent alone.
measured property: Vd

# molecule, recorded measurement
records = [
    ("CC[C@@]1(O)C(=O)OCc2c1cc1n(c2=O)Cc2cc3c(CN(C)C)c(O)ccc3nc2-1 [topotecan, Topotecan HCl]", "2.19 L/kg"),
    ("O=C1CN(/N=C/c2ccc([N+](=O)[O-])o2)C(=O)N1 [nitrofurantoin, Nitrofurantoin]", "1.36 L/kg"),
]

Alright, here's another molecule for you.
Problem: Using known records, supply Vd for O=C(O)c1cc(/N=N/c2ccc(S(=O)(=O)Nc3ccccn3)cc2)ccc1O [sulfasalazine, Sulfasalazine]
Solution: 0.45 L/kg

---

- measurement protocol: Blood/plasma concentration ratio (R b) in fresh whole blood
- Assay type: in vitro ADME, FVB mice
- measurement context: fresh whole blood, FVB mouse whole blood, 37°C
Structures can show the parent of a compound that is named as a salt.
measured property: blood plasma ratio at 15 min, 1 µg/mL

# compound, blood plasma ratio at 15 min, 1 µg/mL
records = [
    ("O=C1CN(/N=C/c2ccc([N+](=O)[O-])o2)C(=O)N1 [nitrofurantoin, Nitrofurantoin]", 1.18),
    ("O=C(O)c1cc(/N=N/c2ccc(S(=O)(=O)Nc3ccccn3)cc2)ccc1O [sulfasalazine, Sulfasalazine]", 1.28),
]

Now turn to the next compound.
Problem: // Input: CC[C@@]1(O)C(=O)OCc2c1cc1n(c2=O)Cc2cc3c(CN(C)C)c(O)ccc3nc2-1 [topotecan, Topotecan HCl] . Output its blood plasma ratio at 15 min, 1 µg/mL only.
Solution: 0.94

---

- measurement protocol: Pharmacokinetics after iv and oral administration, P‐S difference method, Mdr1a/1b(−/−) mice
- Assay type: in vivo
- measurement context: male, Mdr1a/1b(−/−) (FVB background), mouse, systemic plasma (abdominal vein), po, 1 mg/kg
Counter-ions that a name gives are not always drawn.
measured property: half-life

Problem: For the compound CC[C@@]1(O)C(=O)OCc2c1cc1n(c2=O)Cc2cc3c(CN(C)C)c(O)ccc3nc2-1 [topotecan, Topotecan HCl] , give its measured half-life value.
Solution: 1.23 h

---

- measurement protocol: Pharmacokinetics after iv and oral administration, P‐S difference method, wild‐type mice
- Format: in vivo
- measurement context: male, FVB (wild-type), mouse, systemic plasma (abdominal vein), po, 1 mg/kg, wild‐type mice; p.o. (ciprofloxacin 1, nitrofurantoin 2, topotecan 1, sulfasalazine 5 mg/kg); systemic (sys) plasma
Structures can show the parent of a compound that is named as a salt.
measured property: half-life (h)
The reply should be a number in h, with the unit left off.

Problem: Quick one: give measured half-life for CC[C@@]1(O)C(=O)OCc2c1cc1n(c2=O)Cc2cc3c(CN(C)C)c(O)ccc3nc2-1 [topotecan, Topotecan HCl]
Solution: 1.04

---

- measurement protocol: Pharmacokinetics after iv and oral administration, P‐S difference method, Mdr1a/1b(−/−) mice
- Type: in vivo
- measurement context: male, FVB Mdr1a/1b(−/−), mouse, portal vein plasma, po, 1 mg/kg; read-out: AUC 0→∞ (AUCpv)
Structures can show the parent of a compound that is named as a salt.
measured property: AUC(0-inf) (µM·h)
// units = µM·h; emit number, no label

Problem: Read the entry CC[C@@]1(O)C(=O)OCc2c1cc1n(c2=O)Cc2cc3c(CN(C)C)c(O)ccc3nc2-1 [topotecan, Topotecan HCl] and write its reported AUC(0-inf).
Solution: 0.589

---

Quick list: AUC(0-inf) per entry.
- measurement protocol: Pharmacokinetics after iv and oral administration, P‐S difference method, wild‐type mice
- Type: in vivo
- measurement context: male, FVB (wild-type), mouse, portal vein plasma, po, wild‐type mice; p.o. (ciprofloxacin 1, nitrofurantoin 2, topotecan 1, sulfasalazine 5 mg/kg); portal vein (pv) plasma; read-out: AUC 0→∞ (AUCpv)
Expressed in µM·h, but write only the number.

# molecule, quantity unit, AUC(0-inf)
data = [
    ("O=C1CN(/N=C/c2ccc([N+](=O)[O-])o2)C(=O)N1", "µM·h", 2.54),
]

# ---- query molecule ----
Problem: Give me measured AUC(0-inf), please, for this molecule: O=C(O)c1cc(/N=N/c2ccc(S(=O)(=O)Nc3ccccn3)cc2)ccc1O
Solution: 2.2

---

Examples of molecules with documented Tmax follow.
- measurement protocol: Pharmacokinetics after iv and oral administration, P‐S difference method, Mdr1a/1b(−/−) mice
- Format: in vivo
- measurement context: male, Mdr1a/1b(−/−) (FVB background), mouse, portal vein plasma, po
Answer in min, number only, no unit symbol.

# molecule, Tmax, min
rows = [
    ("O=C(O)c1cc(/N=N/c2ccc(S(=O)(=O)Nc3ccccn3)cc2)ccc1O [sulfasalazine, Sulfasalazine]", 10.2),
]

Let us move to another entry and its Tmax.
Problem: Using known records, supply Tmax for O=C1CN(/N=C/c2ccc([N+](=O)[O-])o2)C(=O)N1 [nitrofurantoin, Nitrofurantoin]
Solution: 10.2

---

- measurement protocol: Pharmacokinetics after iv and oral administration, P‐S difference method, wild‐type mice
- Format: in vivo
- measurement context: male, FVB (wild-type), mouse, plasma, iv, 1 mg/kg, wild‐type mice; iv 1 mg/kg; read-out: AUC 0→∞
Where a name gives a salt, the structure may show the parent alone.
Overview of reported AUC(0-inf) across a group of molecules:
Kindly format the answer as number then unit.

# molecule, recorded measurement
records = [
    ("O=C(O)c1cc(/N=N/c2ccc(S(=O)(=O)Nc3ccccn3)cc2)ccc1O", "3.82 µM·h"),
    ("CC[C@@]1(O)C(=O)OCc2c1cc1n(c2=O)Cc2cc3c(CN(C)C)c(O)ccc3nc2-1 [topotecan, Topotecan HCl]", "0.994 µM·h"),
]

Switching to the query record.
Problem: Supply reported AUC(0-inf) belonging to this molecule: O=C1CN(/N=C/c2ccc([N+](=O)[O-])o2)C(=O)N1
Solution: 1.84 µM·h

---

Below, each entry is listed with its recorded AUC(0-inf).
- measurement protocol: Pharmacokinetics after iv and oral administration, P‐S difference method, Bcrp(−/−) mice
- Format: in vivo
- measurement context: male, FVB Bcrp(−/−), mouse, systemic plasma (abdominal vein), po, Bcrp(−/−) mice; p.o. (ciprofloxacin 1, nitrofurantoin 2, topotecan 1, sulfasalazine 5 mg/kg); systemic (sys) plasma; read-out: AUC 0→∞ (AUCsys)
Where a name gives a salt, the structure may show the parent alone.
Respond numerically; units are µM·h and should not be typed.

Solved cases (2 shown):
# compound, recorded measurement
data = [
    ("O=C1CN(/N=C/c2ccc([N+](=O)[O-])o2)C(=O)N1", 2.56),
    ("O=C(O)c1cc(/N=N/c2ccc(S(=O)(=O)Nc3ccccn3)cc2)ccc1O", 288),
]

# input for lookup
Problem: Quick one: give measured AUC(0-inf) for CC[C@@]1(O)C(=O)OCc2c1cc1n(c2=O)Cc2cc3c(CN(C)C)c(O)ccc3nc2-1 [topotecan, Topotecan HCl]
Solution: 1.14

---

- measurement protocol: Pharmacokinetics after iv and oral administration, P‐S difference method, Mdr1a/1b(−/−) mice
- Assay type: in vivo
- measurement context: male, FVB Mdr1a/1b(−/−), mouse, portal vein plasma, po, Mdr1a/1b(−/−) mice; p.o. (ciprofloxacin 1, nitrofurantoin 2, topotecan 1, sulfasalazine 5 mg/kg); portal vein (pv) plasma; read-out: AUC 0→∞ (AUCpv)
measured property: AUC(0-inf) (µM·h)
Return type: number; implicit unit µM·h.

Problem: // Input: O=C1CN(/N=C/c2ccc([N+](=O)[O-])o2)C(=O)N1 [nitrofurantoin, Nitrofurantoin] . Output its AUC(0-inf) only.
Solution: 3.18
